Each recorded value in this set is attributed to ChEMBL document CHEMBL1240439.

test system: PC-3; assay: Cytotoxicity against human PC3 cells assessed as cell growth at 10 uM after 48 hrs by sulforhodamine B assay; assay type: functional
The source made the active and inactive calls. The rule behind the calls is not given here.

>  <Entry Smiles>
Cc1c(OCc2nnc(S)o2)ccc2c(-c3ccccc3)cc(=O)oc12

>  <Activity>
inactive

$$$$
>  <Entry Smiles>
CCCc1cc(=O)oc2cc(OCC(=O)n3nc(C)cc3C)ccc12

>  <Activity>
inactive

$$$$
>  <Entry Smiles>
Cc1cc(C)n(C(=O)COc2ccc3c(-c4ccccc4)cc(=O)oc3c2C)n1

>  <Activity>
inactive

$$$$
>  <Entry Smiles>
CSc1nnc(COc2ccc3c(-c4ccccc4)cc(=O)oc3c2C)o1

>  <Activity>
inactive

$$$$
>  <Entry Smiles>
CCCc1cc(=O)oc2cc(OCc3nnc(S)o3)ccc12

>  <Activity>
inactive

$$$$
>  <Entry Smiles>
CCCc1cc(=O)oc2c(C)c(OCC(=O)n3nc(C)cc3C)ccc12

>  <Activity>
inactive

$$$$
>  <Entry Smiles>
CCCc1cc(=O)oc2c(C)c(OCc3nnc(S)o3)ccc12

>  <Activity>
inactive

$$$$
